- SYSTEM_UNDER_TEST: T1, hBCMA (human BCMA) (Homo sapiens, UniProt Q02223)
- T1 sequence (Q02223 1-184): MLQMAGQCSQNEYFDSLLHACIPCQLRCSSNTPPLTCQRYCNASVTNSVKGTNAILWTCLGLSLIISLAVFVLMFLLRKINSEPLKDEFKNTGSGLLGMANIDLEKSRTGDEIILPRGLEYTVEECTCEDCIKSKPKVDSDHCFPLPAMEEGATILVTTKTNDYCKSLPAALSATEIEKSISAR
- EXPERIMENT_DESCRIPTION: Kinetics and affinity of hBCMA/human IgG interactions by SPR (Bio-Rad Proteon XPR36)
- Assay type: binding
- EXPERIMENTAL_PARAMETERS: human BCMA, 37° C.
param class (str): category from kd Human; see ranges Low = under 0.0002 s⁻¹, Mid = from 0.0002 s⁻¹ up to 0.0008 s⁻¹, High = 0.0008 s⁻¹ and over

MOLECULE: A02_Rd4_0.6 nM_C03: anti-BCMA antibody (antibody, V domains shown) VH: EVQLLESGGGLVQPGGSLRLSCAASGFTFSSYAMNWVRQAPGKGLEWVSAISDSGGSKWYADSVKGRFTISRDNSKNTLYLQMNSLRAEDTAVYYCARYWPMSLWGQGTLVTVSS VL: EIVLTQSPGTLSLSPGERATLSCRASQSVSSSYLAWYQQKPGQAPRLLMYDASIRATGIPDRFSGSGSGTDFTLTISRLEPEDFAVYYCQQYFTWPLTFGQGTKVEIK
CLASS_LABEL: Low

MOLECULE: A02_Rd4_6 nM_C25: anti-BCMA antibody (antibody, V domains shown) VH: EVQLLESGGGLVQPGGSLRLSCAASGFTFSSYAMNWVRQAPGKGLEWVSAISDSGGSRWYADSVKGRFTISRDNSKNTLYLQMNSLRAEDTAVYYCARYWPMTPWGQGTLVTVSS VL: EIVLTQSPGTLSLSPGERATLSCRASQSVSSSYLAWYQQKPGQAPRLLMYDASIRATGIPDRFSGSGSGTDFTLTISRLEPEDFAVYYCQQYLDWPLTFGQGTKVEIK
CLASS_LABEL: Low

MOLECULE: P5C1_VHVL: anti-BCMA antibody (antibody, V domains shown) VH: EVQLLESGGGLVQPGGSLRLSCAASGFTFSSYPMSWVRQAPGKGLEWVSAIGGSGGSTYYADSVKGRFTISRDNSKNTLYLQMNSLRAEDTAVYYCARYWPMDSWGQGTLVTVSS VL: EIVLTQSPGTLSLSPGERATLSCRASQSVSSTYLAWYQQKPGQAPRLLIYDASSRAPGIPDRFSGSGSGTDFTLTISRLEPEDFAVYYCQQYSTSPLTFGQGTKVEIK
CLASS_LABEL: High

MOLECULE: A02_Rd4_0.6 nM_C13: anti-BCMA antibody (antibody, V domains shown) VH: EVQLLESGGGLVQPGGSLRLSCAASGFTFSSYAMNWVRQAPGKGLEWVSAISDSGGYRYYADSVKGRFTISRDNSKNTLYLQMNSLRAEDTAVYYCARYWPMSLWGQGTLVTVSS VL: EIVLTQSPGTLSLSPGERATLSCRASQSVSSSYWAWYQQKPGQAPRLLMYDASIRATGIPDRFSGSGSGTDFTLTISRLEPEDFAVYYCQQYESWPLTFGQGTKVEIK
CLASS_LABEL: Mid

MOLECULE: COMBO_Rd4_6 nM_C12: anti-BCMA antibody (antibody, V domains shown) VH: EVQLLESGGGLVQPGGSLRLSCAASGFTFSSYPMSWVRQAPGKGLEWVSAALGSGGSTYYADSVKGRFTISRDNSKNTLYLQMNSLRAEDTAVYYCARYWPMDSWGQGTLVTVS VL: EIVLTQSPGTLSLSPGERATLSCRASQSVSASYLAWYQQKPGQAPRLLMYDASIRATGIPDRFSGSGSGTDFTLTISRLEPEDFAVYYCQQYMSWPLTFGQGTKVEIK
CLASS_LABEL: Mid

MOLECULE: A02_Rd4_6 nM_C03: anti-BCMA antibody (antibody, V domains shown) VH: EVQLLESGGGLVQPGGSLRLSCAASGFTFSSYAMNWVRQAPGKGLEWVSAISDSGGSTYYADSVKGRFTISRDNSKNTLYLQMNSLRAEDTAVYYCARYWPMDIWGQGTLVTVSS VL: EIVLTQSPGTLSLSPGERATLSCRASQSVSNLYLAWYQQKPGQAPRLLMYDASIRATGIPDRFSGSGSGTDFTLTISRLEPEDFAVYYCQQYQGWPLTFGQGTKVEIK
CLASS_LABEL: Low

MOLECULE: COMBO_Rd4_0.6 nM_C23: anti-BCMA antibody (antibody, V domains shown) VH: EVQLLESGGGLVQPGGSLRLSCAASGFTFSSYPMSWVRQAPGKGLEWVSALFGSGGSTYYADSVKGRFTISRDNSKNTLYLQMNSLRAEDTAVYYCARYWPMDSWGQGTLVTVSS VL: EIVLTQSPGTLSLSPGERATLSCRPRQSVSSSYLAWYQQKPGQAPRLLMYDASIRATGIPDRFSGSGSGTDFTLTISRLEPEDFAVYYCQQYQDWPLTFGQGTKVEIK
CLASS_LABEL: Mid

MOLECULE: C01_Rd4_0.6 nM_C06: anti-BCMA antibody (antibody, V domains shown) VH: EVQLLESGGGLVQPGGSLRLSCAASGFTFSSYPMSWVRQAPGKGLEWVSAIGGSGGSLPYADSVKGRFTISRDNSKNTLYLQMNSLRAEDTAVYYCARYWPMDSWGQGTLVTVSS VL: EIVLTQSPGTLSLSPGERATLSCRASEAVPSTYLAWYQQKPGQAPRLLIYDASSRAPGIPDRFSGSGSGTDFTLTISRLEPEDFAVYYCQQYSAFPLTFGQGTKVEIK
CLASS_LABEL: High
